# test-details: probe aCHRDL2 binding to arrayed compounds – biochemical, biotinylated probe, 635/667 nm fluorescence, primary screen (AID 1100)
# measurement-parameters: small-molecule microarray, higher = more signal

{"columns": ["sample-smiles", "composite z-score"],
 "data": [
  ["Cc1ccc([C@H]2C(C(=O)O)=C[C@@H](C(C)C)N2S(=O)(=O)c2ccc(C)cc2)cc1", 0.68],
  ["C[N+](C)(C)CCCC[C@@H]1NC(=O)[C@@H]2C[C@H](C(=O)NCCCCCCNC(=O)CS)[C@H](c3cccc(OCCO)c3)N2C1=O", 0.111],
  ["CCCNC(=O)[C@@]1(C)c2ccccc2C(=O)N(Cc2ccc(OC(F)(F)F)cc2)[C@H]1c1ccc(CO)cc1", 0.666],
  ["O=c1cccc(-c2cccc3ccccc23)o1", 1.23]
]}

----------
Reported composite z-score by item:
# subject-of-test: Neurogenic locus notch homolog protein 2 (Homo sapiens) (UniProt Q04721)
# Sequence (Q04721 whole entry, looked up): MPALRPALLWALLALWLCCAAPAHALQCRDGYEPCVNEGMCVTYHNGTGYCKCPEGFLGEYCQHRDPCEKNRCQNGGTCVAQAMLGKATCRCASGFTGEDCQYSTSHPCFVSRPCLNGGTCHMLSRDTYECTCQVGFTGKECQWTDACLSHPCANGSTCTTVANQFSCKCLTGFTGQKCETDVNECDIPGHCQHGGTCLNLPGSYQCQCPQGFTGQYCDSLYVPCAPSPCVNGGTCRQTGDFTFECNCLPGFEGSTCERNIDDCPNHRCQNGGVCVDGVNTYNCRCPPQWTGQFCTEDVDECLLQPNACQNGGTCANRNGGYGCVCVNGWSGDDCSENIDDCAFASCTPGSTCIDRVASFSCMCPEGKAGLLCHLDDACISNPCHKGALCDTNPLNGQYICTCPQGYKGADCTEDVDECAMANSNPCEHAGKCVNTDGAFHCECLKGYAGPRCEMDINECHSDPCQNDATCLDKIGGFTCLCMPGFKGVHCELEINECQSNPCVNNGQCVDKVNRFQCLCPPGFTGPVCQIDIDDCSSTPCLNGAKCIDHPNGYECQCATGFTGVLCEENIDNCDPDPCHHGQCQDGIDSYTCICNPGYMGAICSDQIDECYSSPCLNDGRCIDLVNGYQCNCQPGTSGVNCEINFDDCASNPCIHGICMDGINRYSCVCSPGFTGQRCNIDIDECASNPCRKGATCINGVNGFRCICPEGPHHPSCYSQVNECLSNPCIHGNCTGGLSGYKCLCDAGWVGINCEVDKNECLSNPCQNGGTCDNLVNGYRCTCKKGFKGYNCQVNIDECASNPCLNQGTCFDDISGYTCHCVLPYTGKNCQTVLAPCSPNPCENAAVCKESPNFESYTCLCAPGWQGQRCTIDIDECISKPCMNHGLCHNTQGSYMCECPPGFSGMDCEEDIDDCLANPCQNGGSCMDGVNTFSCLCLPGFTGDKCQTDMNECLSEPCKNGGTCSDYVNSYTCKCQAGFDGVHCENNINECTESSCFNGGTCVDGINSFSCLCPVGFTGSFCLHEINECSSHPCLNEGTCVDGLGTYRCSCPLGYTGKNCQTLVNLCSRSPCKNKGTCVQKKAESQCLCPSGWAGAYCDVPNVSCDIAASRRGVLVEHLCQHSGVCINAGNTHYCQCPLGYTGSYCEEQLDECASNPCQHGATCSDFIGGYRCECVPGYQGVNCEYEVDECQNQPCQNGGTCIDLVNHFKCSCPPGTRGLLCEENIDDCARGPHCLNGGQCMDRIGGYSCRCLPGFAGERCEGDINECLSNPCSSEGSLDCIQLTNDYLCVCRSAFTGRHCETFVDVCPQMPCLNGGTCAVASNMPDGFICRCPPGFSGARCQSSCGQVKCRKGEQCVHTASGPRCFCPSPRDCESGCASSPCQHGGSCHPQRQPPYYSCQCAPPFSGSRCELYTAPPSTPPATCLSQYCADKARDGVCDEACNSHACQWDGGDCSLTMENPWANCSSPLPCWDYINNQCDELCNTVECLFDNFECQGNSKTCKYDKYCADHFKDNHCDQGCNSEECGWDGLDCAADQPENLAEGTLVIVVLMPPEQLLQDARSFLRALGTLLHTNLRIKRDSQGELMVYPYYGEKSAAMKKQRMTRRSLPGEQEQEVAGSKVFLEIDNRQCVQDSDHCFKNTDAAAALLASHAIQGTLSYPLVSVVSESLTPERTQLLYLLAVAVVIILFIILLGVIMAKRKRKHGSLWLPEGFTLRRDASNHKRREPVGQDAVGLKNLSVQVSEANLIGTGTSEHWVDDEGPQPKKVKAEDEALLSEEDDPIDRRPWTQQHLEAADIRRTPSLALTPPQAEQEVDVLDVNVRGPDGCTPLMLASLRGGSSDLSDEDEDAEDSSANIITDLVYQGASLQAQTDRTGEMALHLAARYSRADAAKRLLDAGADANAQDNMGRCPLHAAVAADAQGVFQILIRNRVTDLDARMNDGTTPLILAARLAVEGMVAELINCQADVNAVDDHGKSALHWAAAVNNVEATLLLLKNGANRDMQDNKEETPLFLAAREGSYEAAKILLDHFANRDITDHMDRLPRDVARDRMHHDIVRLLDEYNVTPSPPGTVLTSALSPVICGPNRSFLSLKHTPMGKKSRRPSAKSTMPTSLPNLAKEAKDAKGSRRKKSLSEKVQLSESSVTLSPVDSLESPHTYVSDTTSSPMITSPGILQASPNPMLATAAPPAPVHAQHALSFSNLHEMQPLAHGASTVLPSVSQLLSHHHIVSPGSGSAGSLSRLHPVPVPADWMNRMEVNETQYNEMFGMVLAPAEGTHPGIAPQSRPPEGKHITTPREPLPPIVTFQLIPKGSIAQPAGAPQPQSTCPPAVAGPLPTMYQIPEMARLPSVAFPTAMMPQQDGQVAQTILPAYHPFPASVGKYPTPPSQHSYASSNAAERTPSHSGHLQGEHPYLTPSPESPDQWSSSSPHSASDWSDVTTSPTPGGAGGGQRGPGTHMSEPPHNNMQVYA
# test-details: small molecules binding Notch2 protein – biochemical, small-molecule microarray, 635 nm fluorescence, stem cell growth factors, primary screen (AID 1073)
# measurement-parameters: higher = more signal

{"columns": ["compound", "composite z-score"],
 "data": [
  ["O=C1C2C=CC(C(O)c3ccc(-c4ccccc4)s3)N(Nc3ccccc3F)C2C(=O)N1c1ccccc1 (centres undefined)", 1.58],
  ["O=C(NCC(O)CO)[C@@]1(Cc2ccccc2)N=C(c2ccc(OCCCO)cc2)O[C@H]1c1ccccc1 (some centres undefined)", -0.0617],
  ["COC(=O)c1nc2oc1CC[C@@H](CO)NC(=O)N(C)Cc1cn(nn1)C[C@H](Cc1ccccc1)NC2=O", 0.242],
  ["C=CCN1C(=O)[C@@]2(O[C@@H](CCO)[C@H]([Si](C)(C)c3ccc(OC)cc3)[C@H]2C)c2cc(N3C(=O)COc4ccccc43)ccc21", 0.227],
  ["COc1ccc(C#Cc2ccc3c(c2)[C@]2(C(=O)N3)[C@H](C(=O)N3CCc4cc(OC)c(OC)cc4C3)[C@H]3C(=O)O[C@H](c4ccccc4)[C@H](c4ccccc4)N3[C@@H]2c2ccc(OCCO)cc2)cc1", 1.32],
  ["CC(=O)NCCCC[C@@H]1NC(=O)[C@@H]2C[C@H](C(=O)NCc3ccc(F)cc3)[C@H](c3ccc(O)cc3)N2C1=O", -0.326],
  ["O=C1O[C@@H](c2ccccc2)[C@@H](c2ccccc2)N2[C@@H](c3ccc(O)cc3)[C@]3(C(=O)Nc4ccccc43)[C@@H](C(=O)N3CCCCCCC3)[C@H]12", 0.519],
  ["O=C(N1CCCCC1)[C@]1(CCS(=O)(=O)c2ccccc2)N=C(c2ccc(OCCCO)cc2)O[C@@H]1c1ccccc1", 0.773],
  ["O=C(NCC(O)CO)[C@]1(CCS(=O)(=O)c2ccccc2)N=C(c2ccc(OCCCO)cc2)O[C@@H]1c1ccccc1 (some centres undefined)", 0.158],
  ["Cc1cc(C)c(C(O)C2C=CC3C(=O)NC(=O)C3N2Nc2ccccn2)c(C)c1 (centres undefined)", 0.486],
  ["C=C(/C(=C/C[C@@H](OC(=O)c1ccncc1)c1ccc(CO)o1)c1cc(C(=O)OC)ccc1OC)C(C)C", 0.974],
  ["[N-]=[N+]=NCc1ccccc1C[C@]1(C(=O)NCCN2CCOCC2)N=C(c2ccc(OCCCO)cc2)O[C@H]1c1ccccc1CN=[N+]=[N-]", 1.03],
  ["COCCOC(=O)N1C(=O)[C@@]2(c3cc(C#CCCO)ccc31)[C@H](C(=O)NC[C@H](O)c1ccccc1)[C@H]1C(=O)O[C@H](c3ccccc3)[C@H](c3ccccc3)N1[C@@H]2c1ccc(OCCO)cc1", 1.08],
  ["CN1C(=O)C2C=CC(C(O)C(c3ccccc3)c3ccccc3)N(Nc3ccccc3)C2C1=O (centres undefined)", 1.48],
  ["COC(=O)[C@@]1(Cc2ccc(F)cc2)[C@H]2c3cc(C(=O)N(C)C)n(CCc4c[nH]c5ccc(OC)cc45)c3C[C@H]2CN1C(=O)c1ccccc1", 1.37],
  ["COCCOC(=O)N1C(=O)[C@@]2(c3cc(C#CCC(C(=O)OC)C(=O)OC)ccc31)[C@H](c1ccccc1OCCO)N1[C@H](c3ccccc3)[C@H](c3ccccc3)OC(=O)[C@H]1[C@@H]2C(=O)Nc1nc2ccccc2s1", 1.2],
  ["O=C1C2C=CC(C(O)c3cccc4ccccc34)N(n3cnnc3)C2C(=O)N1Cc1ccccc1 (centres undefined)", 0.309],
  ["O=C1[C@H]2C=C(Br)[C@H](C[C@@H]2OCCOCCO)[C@@]12CO2", 0.473],
  ["O=C1C2C=CC(C(O)CCc3ccccc3)N(Nc3ccccc3)C2C(=O)N1c1ccccc1 (centres undefined)", 1.61],
  ["CN(C)CCCC[C@@H]1NC(=O)[C@@H]2C[C@H](C(=O)NCCCCCCN)[C@H](c3ccc(O)cc3)N2C1=O", 0.921],
  ["C=CCOC(=O)[C@@H]1[C@H]2C(=O)O[C@H](c3ccccc3)[C@H](c3ccccc3)N2[C@H](c2ccc(OCCOC(=O)[C@H]3C[C@H]4C(=O)N[C@@H](CCCC[N+](C)(C)C)C(=O)N4[C@H]3c3cccc(OCCO)c3)cc2)[C@@]12C(=O)Nc1ccc(I)cc12", 0.827],
  ["[N-]=[N+]=NCc1ccccc1[C@H]1OC(c2ccc(OCCCO)cc2)=N[C@@]1(Cc1ccccc1)C(=O)NCC(O)CO (some centres undefined)", 0.641],
  ["[N-]=[N+]=NCc1ccccc1C[C@]1(C(=O)NCC(O)CO)COC(c2ccc(OCCCO)cc2)=N1 (some centres undefined)", 0.7],
  ["COc1cc(NN2C(C(O)c3ccccc3)C=CC3C(=O)N(c4ccccc4)C(=O)C32)cc(OC)c1OC (centres undefined)", 1.56],
  ["CCCC[C@H]1C[C@@H]1[C@@H]1N(P(=O)(c2ccccc2)c2ccccc2)[C@](CO)(c2ccccc2)CC12CC2", 1.44],
  ["O=C(NCC(O)CO)[C@@]1(Cc2ccccc2)COC(c2ccc(OCCCO)cc2)=N1 (some centres undefined)", -0.0908],
  ["Cc1c(NC(=O)/C(C#N)=C/C=C/c2ccccc2)c(=O)n(-c2ccccc2)n1C", 0.654],
  ["C=CC[C@]1(C(=O)NCCN2CCOCC2)N=C(c2ccc(OCCCO)cc2)O[C@H]1c1ccccc1N=[N+]=[N-]", 0.832],
  ["CC(C)(C)OC(=O)CC[C@@]1(C(N)=O)N=C(c2ccc(OCCCO)cc2)O[C@@H]1c1ccccc1N=[N+]=[N-]", 1.46]
]}

----------
# Tested on: Sonic hedgehog protein (Shh)
# test-details: Sonic hedgehog microarray binding compounds – biochemical, small-molecule microarray, 635/667 nm fluorescence, primary screen (AID 1151);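 note: Shh protein binding to compounds spotted on small-molecule microarray slides; score combines spot fluorescence intensity with signal-to-noise across triplicate slides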
# measurement-parameters: 635 nm fluorescence, higher = more signal

{"columns": ["molecule", "subject-of-test", "composite z-score"],
 "data": [
  ["Cc1ccc(S[C@]2(C(=O)NCC(C)C)CC(=O)N(Cc3ccccc3)[C@@H]2c2ccc(CO)cc2)cc1", "Sonic hedgehog protein (Shh)", -1.45],
  ["C=CCC(OC(C)=O)[C@@H]1[C@@H](N(Cc2ccc(-c3ccccc3)cc2)C(=O)c2ccc(C)cc2)c2cc(OCCCO)ccc2N1C(=O)c1ccc2ccccc2n1 (stereo not given in full)", "Sonic hedgehog protein (Shh)", 0.794],
  ["CC1CC/C=C\\[C@H]2OC34C=CCN(c5ccc6ccccc6c5)C(=O)[C@H]3N(CCCCCO)C(=O)[C@@H]4C2C(=O)O1 (stereo not given in full)", "Sonic hedgehog protein (Shh)", -1.18],
  ["CCCC[C@H]1OB(O)C[C@H]2C1=C(COc1ccccc1)C[C@H]1C(=O)N(Cc3ccccc3)C(=O)[C@H]12", "Sonic hedgehog protein (Shh)", 1.76],
  ["CCOC(=O)C1=CC[C@@H](c2ccccc2)N(S(=O)(=O)c2ccc(C)cc2)[C@H]1c1ccc(C#N)cc1", "Sonic hedgehog protein (Shh)", -0.428],
  ["CCN(CC)c1ccc(N2CC=CC34O[C@@H]5C=CCOC(=O)[C@@H]5[C@H]3C(=O)N(CCCCCO)[C@@H]4C2=O)cc1 (stereo not given in full)", "Sonic hedgehog protein (Shh)", 0.146],
  ["O=C1NC(=O)C2C1C=CC(C(O)c1cccs1)N2Nc1ccccn1 (stereo not given)", "Sonic hedgehog protein (Shh)", -0.0541],
  ["CC(=O)n1cc(C(O)C2C=CC3C(=O)N(c4ccccc4)C(=O)C3N2Nc2ccc(C#N)cc2)c2ccccc21 (stereo not given)", "Sonic hedgehog protein (Shh)", -0.38],
  ["C=C[C@H](C)[C@H](OC(=O)Nc1ccc(OC)cc1)c1ccc(O)c2ccccc12", "Sonic hedgehog protein (Shh)", 0.9],
  ["CC(C)CNC(=O)[C@@]1(C)c2ccccc2C(=O)N(C(C)C)[C@H]1c1ccc(CO)cc1", "Sonic hedgehog protein (Shh)", -0.542],
  ["COc1ccc(C(=O)Nc2cccc(CN3C(=O)[C@@]4(O[C@@H](CC(=O)N5Cc6ccccc6C[C@H]5CO)[C@H]([Si](C)(C)c5ccc(OC)cc5)[C@H]4C)c4ccccc43)c2)cc1", "Sonic hedgehog protein (Shh)", 2.06],
  ["COc1ccc([Si](C)(C)[C@H]2[C@H](CC(=O)N(CCO)Cc3ccccc3)O[C@@]3(C(=O)N(Cc4cccc(N5C(=O)c6cccc7cccc5c67)c4)c4ccccc43)[C@@H]2C)cc1", "Sonic hedgehog protein (Shh)", 1.61],
  ["[N-]=[N+]=Nc1ccccc1C[C@]1(C(=O)N2CCCCC2)N=C(c2ccc(OCCCO)cc2)O[C@H]1c1ccccc1N=[N+]=[N-]", "Sonic hedgehog protein (Shh)", 0.364],
  ["C=CCC(OC(C)=O)[C@@H]1[C@@H](N(Cc2cc3ccccc3o2)C(=O)c2ccc(C)cc2)c2cc(OCCCO)ccc2N1C(=O)c1ccc(-c2ccccc2)cc1 (stereo not given in full)", "Sonic hedgehog protein (Shh)", 0.158],
  ["COCC1C2CC[C@H]3C(OCc4ccc(F)cc4C(F)(F)F)OC[C@]4(C)[C@H]3C2=C(CN4C(=O)OC(C)(C)C)[C@H](C)C1COC (stereo not given in full)", "Sonic hedgehog protein (Shh)", -1.4],
  ["COc1ccc([Si](C)(C)[C@@H]2[C@@H](CCO)O[C@]3(C(=O)N(Cc4cccc(N5CCCCC5=O)c4)c4ccccc43)[C@H]2C)cc1", "Sonic hedgehog protein (Shh)", 1.27],
  ["COc1ccccc1CN1C(=O)c2ccccc2[C@](Cc2ccccc2I)(C(=O)NC2CC2)[C@@H]1c1ccc(CO)cc1", "Sonic hedgehog protein (Shh)", 2.06],
  ["COCCn1c(C(=O)N2CCCC2)cc2c1C[C@H]1CN(C(=O)c3ccccc3)[C@@](Cc3ccc(OC)cc3)(C(=O)OC)[C@@H]21", "Sonic hedgehog protein (Shh)", -0.89],
  ["CO[C@H]1O[C@H](CO)[C@@H](OC(=O)Nc2cccc(F)c2)[C@H](OC(=O)Nc2ccccc2-c2ccccc2)[C@@H]1OC(=O)Nc1ccccc1-c1ccccc1", "Sonic hedgehog protein (Shh)", 0.667],
  ["O=C1C[C@@](C(=O)O)(c2ccc([N+](=O)[O-])cc2)[C@@H](c2ccc(CO)cc2I)N1C1CCCCC1", "Sonic hedgehog protein (Shh)", -0.196],
  ["O=C1OCCC=C[C@H]2OC34C=CCN(CCN5CCOCC5)C(=O)[C@H]3N(CCO)C(=O)[C@@H]4C12 (stereo not given in full)", "Sonic hedgehog protein (Shh)", 0.731],
  ["CC(=O)NCCCC[C@@H]1NC(=O)[C@@H]2C[C@H](C(=O)NCc3ccc(F)cc3)[C@H](c3ccc(O)cc3)N2C1=O", "Sonic hedgehog protein (Shh)", 1.56],
  ["COc1ccc(CCNC(=O)[C@@]2(C)c3ccccc3C(=O)N(Cc3ccccc3)[C@H]2c2ccc(CO)cc2)cc1", "Sonic hedgehog protein (Shh)", 2.16],
  ["O=C1C2C=CC(C(O)c3ccc(Br)cc3)N(n3cnnc3)C2C(=O)N1Cc1ccccc1 (stereo not given)", "Sonic hedgehog protein (Shh)", 0.232],
  ["COC(=O)[C@@]1(Cc2ccc(OC)cc2)[C@H]2c3cc(C(=O)N4CCCC4)n(CCc4ccccn4)c3C[C@H]2CN1C(=O)c1ccccc1", "Sonic hedgehog protein (Shh)", 0.429],
  ["Cc1ccc(S(=O)(=O)N2CC(C(=O)O)=CCC2c2ccccc2)cc1 (stereo not given)", "Sonic hedgehog protein (Shh)", -0.861],
  ["CC(C)(C)OC(=O)CC[C@@]1(C(=O)NCC(O)CO)N=C(c2ccc(OCCCO)cc2)O[C@@H]1c1ccccc1 (stereo not given in full)", "Sonic hedgehog protein (Shh)", -0.887],
  ["CCN(CC)c1ccc(N2CC=CC34O[C@@H]5/C=C\\CCCOC(=O)C5[C@H]3C(=O)N(CCCO)[C@@H]4C2=O)cc1 (stereo not given in full)", "Sonic hedgehog protein (Shh)", -0.18],
  ["C=C(C(=O)CC[C@H](OC(=O)c1cccnc1)c1ccccc1OCCO)C(C)C", "Sonic hedgehog protein (Shh)", 2.27],
  ["C#C[C@H]1Oc2ccccc2S(=O)(=O)N2CCC[C@@H]12", "Sonic hedgehog protein (Shh)", 1.63]
]}
